# target: ErbB4 (Homo sapiens, UniProt Q15303)
# Sequence (Q15303 26-1308, species assumed): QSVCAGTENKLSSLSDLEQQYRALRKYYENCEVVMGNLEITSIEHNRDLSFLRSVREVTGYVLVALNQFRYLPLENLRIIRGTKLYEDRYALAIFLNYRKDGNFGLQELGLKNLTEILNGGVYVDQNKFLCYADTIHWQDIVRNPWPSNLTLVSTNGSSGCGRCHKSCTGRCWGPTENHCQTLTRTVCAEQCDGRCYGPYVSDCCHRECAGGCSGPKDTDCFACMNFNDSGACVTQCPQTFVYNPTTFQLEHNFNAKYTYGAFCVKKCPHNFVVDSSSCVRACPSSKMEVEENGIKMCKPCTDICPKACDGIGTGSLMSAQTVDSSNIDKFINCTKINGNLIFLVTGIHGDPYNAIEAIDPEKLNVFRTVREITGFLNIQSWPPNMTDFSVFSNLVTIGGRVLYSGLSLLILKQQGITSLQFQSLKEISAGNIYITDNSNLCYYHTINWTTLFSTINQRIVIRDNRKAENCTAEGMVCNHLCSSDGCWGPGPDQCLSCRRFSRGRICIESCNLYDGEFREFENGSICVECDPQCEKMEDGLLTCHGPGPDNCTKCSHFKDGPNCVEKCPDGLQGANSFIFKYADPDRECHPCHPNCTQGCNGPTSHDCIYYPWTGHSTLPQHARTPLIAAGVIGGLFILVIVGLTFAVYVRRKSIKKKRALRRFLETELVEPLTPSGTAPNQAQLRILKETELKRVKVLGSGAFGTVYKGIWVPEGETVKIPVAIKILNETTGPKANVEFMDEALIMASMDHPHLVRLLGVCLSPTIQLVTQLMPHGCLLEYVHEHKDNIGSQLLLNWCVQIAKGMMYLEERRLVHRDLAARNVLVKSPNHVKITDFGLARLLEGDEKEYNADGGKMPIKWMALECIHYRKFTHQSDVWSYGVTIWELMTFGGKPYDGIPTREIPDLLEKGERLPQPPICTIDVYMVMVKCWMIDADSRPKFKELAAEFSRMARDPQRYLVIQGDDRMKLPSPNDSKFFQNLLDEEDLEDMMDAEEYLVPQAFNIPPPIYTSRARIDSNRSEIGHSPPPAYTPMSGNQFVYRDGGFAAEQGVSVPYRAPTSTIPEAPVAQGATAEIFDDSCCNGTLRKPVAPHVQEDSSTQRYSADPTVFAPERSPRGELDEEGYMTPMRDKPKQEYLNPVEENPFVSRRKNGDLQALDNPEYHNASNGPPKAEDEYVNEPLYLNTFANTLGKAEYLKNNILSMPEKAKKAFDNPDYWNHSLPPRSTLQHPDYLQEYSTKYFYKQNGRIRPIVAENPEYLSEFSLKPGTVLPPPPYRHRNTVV
pIC50: −log10 of the molar value.
test readout: pIC50

Known results for molecules:
COc1cc(Nc2ncnc(-n3ccc4cc(O)ccc43)n2)cc(OC)c1OC [Compound 202] : 5.21 to 5.99
COc1cc(Nc2ncnc(-n3c(NCCc4ccccc4)nc4ccccc43)n2)cc(OC)c1OC [Compound 509] : 5.32 to 6.09
COc1ccc(Nc2ncnc(Nc3cccc(Br)c3)n2)cc1OC [Compound 118] : < 4.95
COc1cc(Nc2ncnc(N(C/C=C/c3ccccc3)c3ccc(Cl)cc3)n2)cc(OC)c1OC [Compound 56] : < 5.05
COc1ccc(Nc2ncnc(Nc3ccc(OCc4ccccc4)cc3)n2)cc1OC [Compound 157] : < 4.98

Find the recorded pIC50 belonging to COc1cc(Nc2ncnc(-n3c(NCc4ccccc4F)nc4ccccc43)n2)cc(OC)c1OC [Compound 512] and report it. 5.32 to 6.10

Find the recorded pIC50 belonging to COc1cc(Nc2ncnc(-n3cc(CCO)c4ccccc43)n2)cc(OC)c1OC [Compound 463] and report it. < 4.97

Find the recorded pIC50 belonging to COc1cc(Nc2ncnc(-n3ccc4cc(OCc5ccccc5)ccc43)n2)cc(OC)c1OC [Compound 200] and report it. 5.14 to 5.30

Find the recorded pIC50 belonging to COc1cc(Nc2ncnc(Nc3cc(-c4ccccc4)n[nH]3)n2)cc(OC)c1OC [Compound 102] and report it. > 6.02

Find the recorded pIC50 belonging to COc1ccc(Nc2ncnc(Nc3cc(OC)c(OC)c(OC)c3)n2)cc1O [Compound 931] and report it. 5.22 to 6.00

----------
Each item that follows carries a reported pIC50.
# target: c-Met (Homo sapiens, UniProt P08581)
# Construct: Kinases are expressed as either kinase domains or full length constructs; made in house
# Sequence (P08581 25-1390): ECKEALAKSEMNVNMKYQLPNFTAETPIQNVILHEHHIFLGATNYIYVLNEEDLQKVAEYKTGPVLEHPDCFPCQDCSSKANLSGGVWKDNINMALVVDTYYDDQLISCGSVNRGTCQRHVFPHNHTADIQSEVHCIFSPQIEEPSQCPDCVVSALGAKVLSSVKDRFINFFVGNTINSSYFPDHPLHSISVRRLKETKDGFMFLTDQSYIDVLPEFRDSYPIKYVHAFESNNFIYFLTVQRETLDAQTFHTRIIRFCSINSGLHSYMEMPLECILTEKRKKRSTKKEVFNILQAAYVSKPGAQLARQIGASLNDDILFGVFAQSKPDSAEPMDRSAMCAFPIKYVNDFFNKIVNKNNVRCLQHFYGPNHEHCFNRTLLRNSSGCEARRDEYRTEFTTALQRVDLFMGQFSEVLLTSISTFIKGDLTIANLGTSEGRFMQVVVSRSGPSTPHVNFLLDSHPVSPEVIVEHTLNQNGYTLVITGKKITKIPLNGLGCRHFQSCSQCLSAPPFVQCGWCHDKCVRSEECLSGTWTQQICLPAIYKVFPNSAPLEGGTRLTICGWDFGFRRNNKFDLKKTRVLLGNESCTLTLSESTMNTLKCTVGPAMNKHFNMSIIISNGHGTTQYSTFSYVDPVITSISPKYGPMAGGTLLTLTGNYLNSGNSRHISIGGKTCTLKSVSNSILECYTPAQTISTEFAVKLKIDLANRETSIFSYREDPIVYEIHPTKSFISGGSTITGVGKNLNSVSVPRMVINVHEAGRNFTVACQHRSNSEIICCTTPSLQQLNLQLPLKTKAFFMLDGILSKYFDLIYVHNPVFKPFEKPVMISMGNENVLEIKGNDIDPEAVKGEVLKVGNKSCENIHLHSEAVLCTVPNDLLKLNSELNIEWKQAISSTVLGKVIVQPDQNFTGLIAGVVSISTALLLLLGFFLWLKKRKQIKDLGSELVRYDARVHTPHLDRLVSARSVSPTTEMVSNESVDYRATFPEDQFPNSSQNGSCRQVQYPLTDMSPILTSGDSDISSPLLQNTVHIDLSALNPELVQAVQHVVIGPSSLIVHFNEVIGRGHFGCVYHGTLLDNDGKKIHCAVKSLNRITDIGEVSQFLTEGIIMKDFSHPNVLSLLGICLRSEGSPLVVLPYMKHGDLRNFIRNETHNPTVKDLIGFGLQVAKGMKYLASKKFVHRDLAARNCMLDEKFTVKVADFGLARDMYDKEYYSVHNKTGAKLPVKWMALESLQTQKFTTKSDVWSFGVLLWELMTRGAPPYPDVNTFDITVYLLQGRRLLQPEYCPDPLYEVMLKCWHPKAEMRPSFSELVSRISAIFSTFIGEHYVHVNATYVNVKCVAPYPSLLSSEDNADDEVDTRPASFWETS
# protocol: Kinase inhibition assay (33P transfer), c-Met
# Format: biochemical
# assay conditions: Table 2, class symbols A-E; read-out: Met-1
pIC50: −log10 of the molar value.

Known results for molecules:
COc1cc(Nc2ncnc(Nc3cc(-c4ccc(C(N)=O)cc4)n[nH]3)n2)cc(OC)c1OC : > 6.06
c1coc(-c2cc(Nc3ncnc(Nc4nc[nH]n4)n3)n[nH]2)c1 : 5.11 to 5.89
COC(=O)c1ccc(-c2cc(Nc3ncnc(NCc4ccccc4OC)n3)[nH]n2)cc1 : < 4.98
CCOc1cccc(Nc2ncnc(Nc3cc(-c4ccc(C(=O)OC)cc4)n[nH]3)n2)c1 : 5.25 to 6.03
NC(=O)Cc1cccc(Nc2ncnc(Nc3cccc(Br)c3)n2)c1 : < 4.95

Find the recorded pIC50 belonging to COC(=O)c1ccc(-c2cc(Nc3ncnc(NCc4ccccc4F)n3)[nH]n2)cc1 and report it. < 4.97

Find the recorded pIC50 belonging to CC(C)Nc1ncccc1-c1ncnc(Nc2cccc(CO)c2)n1 and report it. 4.87 to 4.98

Find the recorded pIC50 belonging to COc1ccc(Nc2ncnc(N(C)c3ccccc3)n2)cc1OC and report it. 5.15 to 5.93

----------
# target: PDGFRB (Homo sapiens, UniProt P09619)
# Construct: Kinases are expressed as either kinase domains or full length constructs; made in house
# Sequence (P09619 33-1106, species assumed): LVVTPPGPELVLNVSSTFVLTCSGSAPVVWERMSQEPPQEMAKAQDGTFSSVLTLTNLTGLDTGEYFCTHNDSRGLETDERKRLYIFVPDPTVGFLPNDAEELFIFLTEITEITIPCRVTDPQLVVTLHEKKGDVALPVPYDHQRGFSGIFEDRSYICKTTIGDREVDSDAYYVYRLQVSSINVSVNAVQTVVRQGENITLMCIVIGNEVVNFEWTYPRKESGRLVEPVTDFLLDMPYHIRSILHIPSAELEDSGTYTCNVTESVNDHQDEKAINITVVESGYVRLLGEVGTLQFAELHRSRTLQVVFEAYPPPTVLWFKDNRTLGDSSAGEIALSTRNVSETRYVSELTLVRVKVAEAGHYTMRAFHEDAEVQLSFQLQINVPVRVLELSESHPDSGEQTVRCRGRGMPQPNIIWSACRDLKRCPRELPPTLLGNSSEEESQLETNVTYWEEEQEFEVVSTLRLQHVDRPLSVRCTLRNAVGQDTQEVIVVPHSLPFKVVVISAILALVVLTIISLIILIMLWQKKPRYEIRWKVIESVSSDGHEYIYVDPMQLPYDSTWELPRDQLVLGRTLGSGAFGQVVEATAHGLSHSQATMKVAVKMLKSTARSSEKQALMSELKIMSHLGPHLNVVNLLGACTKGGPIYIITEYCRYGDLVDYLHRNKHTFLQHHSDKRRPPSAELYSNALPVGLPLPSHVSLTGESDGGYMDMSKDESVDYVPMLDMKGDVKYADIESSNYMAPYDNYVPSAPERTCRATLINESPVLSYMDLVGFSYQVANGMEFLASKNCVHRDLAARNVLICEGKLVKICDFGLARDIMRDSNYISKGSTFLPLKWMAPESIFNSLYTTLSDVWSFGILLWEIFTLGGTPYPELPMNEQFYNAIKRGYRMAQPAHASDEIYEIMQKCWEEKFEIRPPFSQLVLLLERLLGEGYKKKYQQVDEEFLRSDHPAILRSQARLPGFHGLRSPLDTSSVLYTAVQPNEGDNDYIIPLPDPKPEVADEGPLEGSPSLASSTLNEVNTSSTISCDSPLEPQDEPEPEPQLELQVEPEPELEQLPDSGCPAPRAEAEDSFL
# protocol: Kinase inhibition assay (33P transfer), PDGFRB
# Format: biochemical
# assay conditions: read-out: PDGFRB-1
pIC50: −log10 of the molar value.
Each item that follows carries a reported pIC50.

Known results for compounds:
COc1cc(Nc2ncnc(Nc3cc(-c4ccccc4)n[nH]3)n2)cc(OC)c1OC [Compound 102] : 5.08 to 5.24
COc1cc(Nc2ncnc(Nc3cccc4ccccc34)n2)cc(OCCN2CCOCC2)c1OC [Compound 953] : > 6.10
COc1cc(Nc2ncnc(-c3cccnc3NCc3ccc(F)cc3)n2)cc(OC)c1OC [Compound 1088] : > 6.06

Hello, I am looking for reported pIC50 with PDGFRB (Homo sapiens, UniProt P09619) for COc1cc(Nc2ncnc(Nc3ccccc3C)n2)cc(OC)c1OC [Compound 67] . Could you help? 5.18 to 5.96

Hello, I am looking for reported pIC50 with PDGFRB (Homo sapiens, UniProt P09619) for COc1cc(Nc2ncnc(-n3c(NC(CCO)c4ccccc4)nc4ccccc43)n2)cc(OC)c1OC (centres unmarked) [Compound 591] . Could you help? > 6.12

Hello, I am looking for reported pIC50 with PDGFRB (Homo sapiens, UniProt P09619) for COc1cc(Nc2ncnc(Nc3ccc(OCc4ccccc4)cc3)n2)cc(OC)c1 [Compound 156] . Could you help? 4.98 to 5.09

Hello, I am looking for reported pIC50 with PDGFRB (Homo sapiens, UniProt P09619) for COc1cc(Nc2ncnc(Nc3ccc(C(N)=O)cc3)n2)cc(OC)c1OC [Compound 33] . Could you help? 4.94 to 5.05

Hello, I am looking for reported pIC50 with PDGFRB (Homo sapiens, UniProt P09619) for COc1cc(Nc2ncnc(-n3c(NCc4cccc(C)c4)nc4ccccc43)n2)cc(OC)c1OC [Compound 515] . Could you help? > 6.09

From: patent US7074789B2
